# Tested on: récepteurs surrénaliens de l'angiotensine Il
# PROCEDURE TEXT: Displacement of [125I]-SIAII radioligand from adrenal angiotensin II receptors (rat adrenal homogenate)
# Assay type: binding
# STATED CONDITIONS: competitor 1E-5M, 60 min at 25°C, 10 µM
Give measured % de déplacement du ligand marqué for each item. Keep answers brief.
Numeric only. Scale: %

For the compound shown here, CCCc1nc2nncn2c(O)c1Cc1ccc(-c2ccccc2-c2nnn[nH]2)cc1 , give the reported % de déplacement du ligand marqué. 63

# iterate: CCCc1nc2ncnn2c(O)c1Cc1ccc(-c2ccccc2-c2nnn[nH]2)cc1 65

# iterate: CCCCc1c(Cc2ccc(-c3ccccc3-c3nnn[nH]3)cc2)c(O)nc2nc(C)nn12 58

# iterate: CCCc1c(Cc2ccc(-c3ccccc3-c3nnn[nH]3)cc2)c(N)nc2ncnn12 63

# iterate: CCCc1c(Cc2ccc(-c3sccc3-c3nnn[nH]3)cc2)c(O)nc2ncnn12 58

# iterate: CCCc1c(Cc2ccc(-c3ccccc3-c3nnn[nH]3)cc2)c(O)nc2ncnn12 61

# iterate: CCCc1c(Cc2ccc(-c3ccccc3-c3nnn[nH]3)cc2)c(O)nc2nc(N)nn12 61

# iterate: CCCc1c(Cc2ccc(-c3ccccc3-c3nnn[nH]3)cc2)c(N(CC)CC)nc2ncnn12 63

# iterate: CCCc1nc2nc(CC)nn2c(O)c1Cc1ccc(-c2ccccc2-c2nnn[nH]2)cc1 69
